I'd be grateful if you could share measured inhibition at 10 µM for these entries.
- assayed_target: CYP3A4 (Homo sapiens)
- Sequence (P08684 whole entry): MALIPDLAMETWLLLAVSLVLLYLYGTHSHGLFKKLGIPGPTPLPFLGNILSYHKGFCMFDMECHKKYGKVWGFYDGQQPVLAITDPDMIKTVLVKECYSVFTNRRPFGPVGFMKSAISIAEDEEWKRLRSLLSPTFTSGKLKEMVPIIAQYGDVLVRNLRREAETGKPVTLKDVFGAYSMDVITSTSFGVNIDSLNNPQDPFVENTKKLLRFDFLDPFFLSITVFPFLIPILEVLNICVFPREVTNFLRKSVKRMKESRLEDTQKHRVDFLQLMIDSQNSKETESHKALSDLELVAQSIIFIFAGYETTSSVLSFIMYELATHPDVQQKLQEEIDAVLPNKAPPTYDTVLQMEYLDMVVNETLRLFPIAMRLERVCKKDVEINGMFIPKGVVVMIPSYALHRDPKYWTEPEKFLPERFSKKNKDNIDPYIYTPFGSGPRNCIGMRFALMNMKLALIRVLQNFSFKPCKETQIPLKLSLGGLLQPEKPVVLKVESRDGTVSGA
- experiment_notes: Inhibition of CYP3A4 using BFC as substrate at 10 uM
- Assay type: ADME
- condition_description: probe BFC

Please look at the items below and tell me inhibition at 10 µM for each one, in order.
1. C[C@@H](C(=O)Nc1nnc[nH]1)c1ccc(OS(=O)(=O)C(F)(F)F)cc1
2. C[C@@H](C(=O)O)c1ccc(OS(=O)(=O)C(F)(F)F)cc1
3. C[C@@H](C(=O)Nc1nncs1)c1ccc(OS(=O)(=O)C(F)(F)F)cc1
4. C[C@@H](C(=O)Nc1ccccn1)c1ccc(OS(=O)(=O)C(F)(F)F)cc1
5. C[C@@H](C(=O)Nc1ncco1)c1ccc(OS(=O)(=O)C(F)(F)F)cc1

Found:
8%
< 5%
66%
15%
44%

---

- assayed_target: CYP2C9 (Homo sapiens, UniProt P11712)
- Sequence (P11712 whole entry): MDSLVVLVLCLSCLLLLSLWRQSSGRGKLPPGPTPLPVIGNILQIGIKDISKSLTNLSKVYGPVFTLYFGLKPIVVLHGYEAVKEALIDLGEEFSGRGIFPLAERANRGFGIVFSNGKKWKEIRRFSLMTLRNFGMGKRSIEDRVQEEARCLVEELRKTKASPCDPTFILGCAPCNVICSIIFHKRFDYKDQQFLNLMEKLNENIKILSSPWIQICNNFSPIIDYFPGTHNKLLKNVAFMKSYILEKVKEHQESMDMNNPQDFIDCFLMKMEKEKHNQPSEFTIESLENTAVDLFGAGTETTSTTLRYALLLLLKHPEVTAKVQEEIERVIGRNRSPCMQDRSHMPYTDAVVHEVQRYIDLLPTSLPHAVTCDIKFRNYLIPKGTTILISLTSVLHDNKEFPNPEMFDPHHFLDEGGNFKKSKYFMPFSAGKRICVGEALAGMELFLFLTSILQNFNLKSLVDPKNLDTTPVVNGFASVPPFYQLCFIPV
- experiment_notes: Inhibition of CYP2C9 using 7MFC as substrate at 10 uM
- Assay type: ADME
- condition_description: probe 7MFC
Classify as follows. Reported inhibition at 10 µM greater than or equal to 50%: TRUE. Reported inhibition at 10 µM below: FALSE.

compound=C[C@@H](C(=O)Nc1nccs1)c1ccc(OS(=O)(=O)C(F)(F)F)cc1 assayed_target="CYP2C9 (Homo sapiens, UniProt P11712)" group=TRUE
compound=C[C@@H](C(=O)Nc1ccccn1)c1ccc(OS(=O)(=O)C(F)(F)F)cc1 assayed_target="CYP2C9 (Homo sapiens, UniProt P11712)" group=FALSE
compound=C[C@@H](C(=O)Nc1ncco1)c1ccc(OS(=O)(=O)C(F)(F)F)cc1 assayed_target="CYP2C9 (Homo sapiens, UniProt P11712)" group=TRUE
compound=C[C@@H](C(=O)O)c1ccc(OS(=O)(=O)C(F)(F)F)cc1 assayed_target="CYP2C9 (Homo sapiens, UniProt P11712)" group=FALSE
compound=C[C@@H](C(=O)Nc1nnc[nH]1)c1ccc(OS(=O)(=O)C(F)(F)F)cc1 assayed_target="CYP2C9 (Homo sapiens, UniProt P11712)" group=FALSE

Lookup: In plain terms: is recorded inhibition at 10 µM at least 50% for C[C@@H](C(=O)NS(C)(=O)=O)c1ccc(OS(=O)(=O)C(F)(F)F)cc1 [LADARIXIN] ?
Found: FALSE

Lookup: In plain terms: is recorded inhibition at 10 µM at least 50% for "C[C@@H](C(=O)Nc1nc(C(F)(F)F)co1)c1ccc(OS(=O)(=O)C(F)(F)F)cc1" ?
Found: TRUE

Lookup: In plain terms: is recorded inhibition at 10 µM at least 50% for "Cc1csc(NC(=O)[C@H](C)c2ccc(OS(=O)(=O)C(F)(F)F)cc2)n1" ?
Found: TRUE

Lookup: In plain terms: is recorded inhibition at 10 µM at least 50% for "C[C@@H](C(=O)Nc1nc(C(F)(F)F)cs1)c1ccc(OS(=O)(=O)C(F)(F)F)cc1" ?
Found: TRUE

---

- experiment_notes: Chemical stability of the compound assessed as compound remaining at pH 7.4 after 2 hrs
- Type: physicochemical
- condition_description: buffer, read-out: Stability
I'd be grateful if you could share measured remaining at 2 h for these entries.

Please look at the items below and tell me remaining at 2 h for each one, in order.
1. C[C@@H](C(=O)O)c1ccc(OS(=O)(=O)C(F)(F)F)cc1
2. C[C@@H](C(=O)N(C)O)c1ccc(OS(=O)(=O)C(F)(F)F)cc1
3. CONC(=O)[C@H](C)c1ccc(OS(=O)(=O)C(F)(F)F)cc1
4. C[C@@H](C(=O)NO)c1ccc(OS(=O)(=O)C(F)(F)F)cc1

Found:
1. > 99%
2. > 98%
3. > 98%
4. > 98%

---

- assayed_target: C-X-C chemokine receptor type 2 (Homo sapiens)
- Sequence (whole entry): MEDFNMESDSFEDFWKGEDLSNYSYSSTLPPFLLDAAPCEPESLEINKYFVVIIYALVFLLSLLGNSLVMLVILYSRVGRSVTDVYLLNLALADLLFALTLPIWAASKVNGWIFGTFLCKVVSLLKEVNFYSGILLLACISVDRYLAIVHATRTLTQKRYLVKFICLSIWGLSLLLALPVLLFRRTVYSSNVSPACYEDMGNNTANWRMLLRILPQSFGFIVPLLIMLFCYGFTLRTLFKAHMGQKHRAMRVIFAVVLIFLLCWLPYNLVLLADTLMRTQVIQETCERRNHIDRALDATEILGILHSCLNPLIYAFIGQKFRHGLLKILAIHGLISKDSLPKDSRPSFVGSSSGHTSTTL
- experiment_notes: Inhibition of CXCR2 in human polymorphonucleate cells assessed as inhibition of CXCL1-induced chemotaxis at 10^-8 M incubated for 15 mins prior to CXCL1-induction measured after 45 mins
property_measured: inhibition

For orientation, consider the following solved cases.
smiles_record=C[C@@H](C(=O)O)c1ccc(OS(=O)(=O)C(F)(F)F)cc1 result=63%
smiles_record=C[C@@H](C(=O)Nc1ncco1)c1ccc(OS(=O)(=O)C(F)(F)F)cc1 result=46%
smiles_record=C[C@@H](C(=O)Nc1nc(C(F)(F)F)co1)c1ccc(OS(=O)(=O)C(F)(F)F)cc1 result=50%

Next:
Lookup: Give reported inhibition for "C[C@@H](C(=O)Nc1nnco1)c1ccc(OS(=O)(=O)C(F)(F)F)cc1" (C-X-C chemokine receptor type 2 (Homo sapiens))
Found: 48%

---

I'd be grateful if you could share measured inhibition at 10 µM for these entries.
- assayed_target: CYP2C19 (Homo sapiens, UniProt P33261)
- Sequence (P33261 whole entry): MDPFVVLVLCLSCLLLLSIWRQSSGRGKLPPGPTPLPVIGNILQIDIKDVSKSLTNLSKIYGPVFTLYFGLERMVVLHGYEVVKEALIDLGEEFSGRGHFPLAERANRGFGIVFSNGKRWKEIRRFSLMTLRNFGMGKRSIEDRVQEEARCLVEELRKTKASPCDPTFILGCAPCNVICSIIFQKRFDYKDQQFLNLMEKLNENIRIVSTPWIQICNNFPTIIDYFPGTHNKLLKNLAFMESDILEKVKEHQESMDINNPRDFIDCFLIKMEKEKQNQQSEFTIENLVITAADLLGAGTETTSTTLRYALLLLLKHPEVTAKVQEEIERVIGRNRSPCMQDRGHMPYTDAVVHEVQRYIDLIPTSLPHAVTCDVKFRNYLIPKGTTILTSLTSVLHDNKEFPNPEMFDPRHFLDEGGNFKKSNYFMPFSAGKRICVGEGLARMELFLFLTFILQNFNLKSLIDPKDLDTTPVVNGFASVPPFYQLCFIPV
- experiment_notes: Inhibition of CYP2C19 using DBF as substrate at 10 uM
- Format: ADME
- condition_description: probe DBF
Numbers only, in %.

For orientation, consider the following solved cases.
smiles_record=C[C@@H](C(=O)Nc1nc(C(F)(F)F)cs1)c1ccc(OS(=O)(=O)C(F)(F)F)cc1 assayed_target="CYP2C19 (Homo sapiens, UniProt P33261)" numeric_value=94
smiles_record=Cc1csc(NC(=O)[C@H](C)c2ccc(OS(=O)(=O)C(F)(F)F)cc2)n1 assayed_target="CYP2C19 (Homo sapiens, UniProt P33261)" numeric_value=90
smiles_record=C[C@@H](C(=O)Nc1nc(C(F)(F)F)co1)c1ccc(OS(=O)(=O)C(F)(F)F)cc1 assayed_target="CYP2C19 (Homo sapiens, UniProt P33261)" numeric_value=94
smiles_record=C[C@@H](C(=O)Nc1ncco1)c1ccc(OS(=O)(=O)C(F)(F)F)cc1 assayed_target="CYP2C19 (Homo sapiens, UniProt P33261)" numeric_value=90
smiles_record=C[C@@H](C(=O)Nc1ccccn1)c1ccc(OS(=O)(=O)C(F)(F)F)cc1 assayed_target="CYP2C19 (Homo sapiens, UniProt P33261)" numeric_value=97

Please look at the items below and tell me inhibition at 10 µM for each one, in order.
1. C[C@@H](C(=O)Nc1nnc[nH]1)c1ccc(OS(=O)(=O)C(F)(F)F)cc1
2. C[C@@H](C(=O)Nc1nncs1)c1ccc(OS(=O)(=O)C(F)(F)F)cc1
3. C[C@@H](C(=O)Nc1nccs1)c1ccc(OS(=O)(=O)C(F)(F)F)cc1

Found:
1: 21; 2: 70; 3: 87

---

- experiment_notes: Metabolic stability in rat plasma assessed as compound remaining at 1 uM after 1 hr
- Assay type: ADME, cell-free
- condition_description: read-out: Stability
property_measured: remaining at 1 h, 1 µM (%)
Numbers only, in %.

For orientation, consider the following solved cases.
molecule=C[C@@H](C(=O)NO)c1ccc(OS(=O)(=O)C(F)(F)F)cc1 numeric_value=85
molecule=CONC(=O)[C@H](C)c1ccc(OS(=O)(=O)C(F)(F)F)cc1 numeric_value=90
molecule=CC(C)ONC(=O)[C@H](C)c1ccc(OS(=O)(=O)C(F)(F)F)cc1 numeric_value=85
molecule=C[C@@H](C(=O)O)c1ccc(OS(=O)(=O)C(F)(F)F)cc1 numeric_value=100
molecule="C[C@@H](C(=O)NS(C)(=O)=O)c1ccc(OS(=O)(=O)C(F)(F)F)cc1 [LADARIXIN]" numeric_value=100

Next:
Lookup: # return recorded remaining at 1 h, 1 µM for input "C[C@@H](C(=O)N(C)O)c1ccc(OS(=O)(=O)C(F)(F)F)cc1"
Found: 96

---

- assayed_target: C-X-C chemokine receptor type 2 (Homo sapiens) (UniProt P25025)
- Sequence (whole entry): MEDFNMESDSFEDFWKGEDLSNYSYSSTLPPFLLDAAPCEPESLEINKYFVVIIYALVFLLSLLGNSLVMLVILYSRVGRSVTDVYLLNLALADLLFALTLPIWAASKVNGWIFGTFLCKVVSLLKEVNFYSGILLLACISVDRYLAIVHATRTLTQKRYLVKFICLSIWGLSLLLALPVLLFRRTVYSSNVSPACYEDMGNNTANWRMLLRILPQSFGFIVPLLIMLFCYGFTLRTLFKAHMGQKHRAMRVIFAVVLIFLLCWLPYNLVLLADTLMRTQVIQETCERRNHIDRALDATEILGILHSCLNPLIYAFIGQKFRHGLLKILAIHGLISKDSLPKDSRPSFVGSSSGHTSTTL
- experiment_notes: Inhibition of CXCR2 in human polymorphonucleate cells assessed as inhibition of CXCL1-induced chemotaxis at 10^-8 M incubated for 15 mins prior to CXCL1-induction measured after 45 mins
I'd be grateful if you could share measured inhibition for these entries.

For orientation, consider the following solved cases.
smiles_record=CC(C)NC(=O)[C@H](C)c1ccc(OS(=O)(=O)C(F)(F)F)cc1 property_measured=inhibition result=65%
smiles_record=CONC(=O)[C@H](C)c1ccc(OS(=O)(=O)C(F)(F)F)cc1 property_measured=inhibition result=46%
smiles_record=C[C@@H](C(=O)NS(=O)(=O)C1CC1)c1ccc(OS(=O)(=O)C(F)(F)F)cc1 property_measured=inhibition result=45%
smiles_record=CC(C)ONC(=O)[C@H](C)c1ccc(OS(=O)(=O)C(F)(F)F)cc1 property_measured=inhibition result=38%
smiles_record=C[C@@H](C(=O)NO)c1ccc(OS(=O)(=O)C(F)(F)F)cc1 property_measured=inhibition result=49%

Please look at the items below and tell me inhibition for each one, in order.
1. C[C@@H](C(N)=O)c1ccc(OS(=O)(=O)C(F)(F)F)cc1
2. C[C@@H](C(=O)N(C)O)c1ccc(OS(=O)(=O)C(F)(F)F)cc1
3. C[C@@H](C(=O)NOCC1CC1)c1ccc(OS(=O)(=O)C(F)(F)F)cc1
4. C[C@@H](C(=O)Nc1nc(C(F)(F)F)cs1)c1ccc(OS(=O)(=O)C(F)(F)F)cc1
5. Cc1csc(NC(=O)[C@H](C)c2ccc(OS(=O)(=O)C(F)(F)F)cc2)n1

Found:
["56%", "49%", "35%", "55%", "50%"]

Please look at the items below and tell me inhibition for each one, in order.
1. C[C@@H](C(=O)Nc1nncs1)c1ccc(OS(=O)(=O)C(F)(F)F)cc1
2. C[C@@H](C(=O)Nc1ccccn1)c1ccc(OS(=O)(=O)C(F)(F)F)cc1
3. C[C@@H](C(=O)Nc1nnc[nH]1)c1ccc(OS(=O)(=O)C(F)(F)F)cc1
4. CC(C)Cc1ccc([C@@H](C)C(=O)NS(C)(=O)=O)cc1
5. C[C@@H](C(=O)NS(C)(=O)=O)c1ccc(OS(=O)(=O)C(F)(F)F)cc1

Found:
["55%", "45%", "45%", "22%", "68%"]

Lookup: # return recorded inhibition for input "C[C@@H](C(=O)Nc1nccs1)c1ccc(OS(=O)(=O)C(F)(F)F)cc1"
Found: 55%

Source listed as ChEMBL document CHEMBL2021812.
